Data origin, for the record: PubChem BioAssay

procedure.summary: viability loss with induced miR-34 in A549 – imaging, A549 dox-inducible miR-34, nuclei and caspase counts, primary screen (AID 1347080)
conditions: A549 miR-34 inducible, Hoechst nuclei count, 48 h; measured here: relative caspase fold change +Dox/-Dox
Measured fold change values are reported for all entries that follow.
readout.name: fold change

In [3]: df
Out[3]:
                                    compound  readout_name  endpoint_result
 0  Nc1ncnc2c1ncn2[C@@H]1O[C@H](COP(=O)(O)O)[C@@H](O)[C@H]1O   fold change             1.03
 1  CC1(C)O[C@@H]2C[C@H]3[C@@H]4CCC5=CC(=O)CC[C@]5(C)[C@@]4(F)[C@@H](O)C[C@]3(C)[C@]2(C(=O)CCl)O1   fold change             1.34
 2  CN1CCN(c2cc3c(cc2F)c(=O)c(C(=O)O)cn3-c2ccc(F)cc2)CC1   fold change            0.995
 3     CN(C)c1ccc2nc3ccc(=[N+](C)C)cc-3sc2c1   fold change             1.47
 4                   CCN(CC)C(=O)c1cccc(C)c1   fold change             1.76
 5  COCCCOc1cc(C[C@@H](C[C@H](N)[C@@H](O)C[C@H](C(=O)NCC(C)(C)C(N)=O)C(C)C)C(C)C)ccc1OC   fold change            0.866
 6  O=C(OCC(O)CO)c1ccccc1Nc1ccnc2cc(Cl)ccc12 (stereo not drawn)   fold change             1.28
 7  CC[C@]12CCCN3CCc4c(n(c5ccccc45)[C@@](O)(C(=O)OC)C1)[C@@H]32   fold change             1.33
 8       CC(N)CCCC(C)(C)O (stereo not drawn)   fold change             1.29
 9  O=C(O)[C@@H]1[C@H]2C[C@H]3c4[nH]c5ccccc5c4CCN3C[C@@H]2CC[C@@H]1O   fold change             1.33
10  CN1CCCN=C1COC(=O)C(O)(c1ccccc1)C1CCCCC1 (stereo not drawn)   fold change             3.67
11  CC(=O)OCC1=C(C(=O)O)N2C(=O)[C@@H](NC(=O)CSc3ccncc3)[C@H]2SC1   fold change             4.65
12  CCCCC(CC)CN=C(N)NC(N)=NCCCCCCN=C(N)NC(N)=NCC(CC)CCCC (stereo not drawn)   fold change             1.43

====

# key: entry, value: inhibition of viability
procedure.summary: HCT116 colon cancer cell growth inhibition, primary screen, CellTiter-Glo luminescence, NPC library (AID 1117342)
conditions: at 20 µM (top of the series)
readout.name: inhibition of viability (%)

>>> print(df.to_string())
                                    compound  endpoint_result
 0       CCn1cc(C(=O)O)c(=O)c2cc3c(cc21)OCO3            -19.5
 1      CCCCOc1cc(C(=O)NCCN(CC)CC)c2ccccc2n1             45.3
 2                             NCCS(=O)(=O)O            -12.3
 3  CN(C)CCOC(=O)C(c1ccccc1)C1(O)CCCC1 (stereo not drawn)             50.1
 4                   O=C(OCc1ccccc1)c1ccccc1             10.4
 5          Cc1c(NC(C)C)c(=O)n(-c2ccccc2)n1C              -11
 6  CC(=O)OCC1=C(C(=O)O)N2C(=O)[C@@H](NC(=O)CSc3ccncc3)[C@H]2SC1             5.07
 7  C[C@@H]1CN(c2c(F)c(F)c3c(=O)c(C(=O)O)cn(C4CC4)c3c2F)C[C@H](C)N1              4.9
 8  CC(C)NCC(O)COc1ccc(CCOCC2CC2)cc1 (stereo not drawn)             14.2
 9  CCOC(=O)[C@H](CCc1ccccc1)N[C@@H](C)C(=O)N1CCC[C@H]1C(=O)O            -3.77
10                CC(C)(Oc1ccc(Cl)cc1)C(=O)O             13.2
11          CC(C)N=C(N)/N=C(\N)Nc1ccc(Cl)cc1             13.5
12     O=C(CCCN1CCN(c2ccccn2)CC1)c1ccc(F)cc1               51
13                        CC(=O)Oc1cccc(O)c1             3.03
14  CC[C@@]1(O)C(=O)OCc2c1cc1n(c2=O)Cc2cc3c(CN(C)C)c(O)ccc3nc2-1             52.2
15                      Nc1ccc(O)c(C(=O)O)c1              6.8
16                 CNNCc1ccc(C(=O)NC(C)C)cc1             -1.9
17             CCN(CC)CCNC(=O)COc1ccc(OC)cc1            -18.7
